Where do the numbers come from? From patent EP4659811A1.

- EXPERIMENTAL SYSTEM: T1, VP1 pentamer of BKV genotype IV (recombinant) (BK virus genotype IV, UniProt P14996 30-300)
- T1 construct: also called GIV; VP1 BKV subtype IV; not shown: N-terminal His-tag of pESPRIT002; C-terminal biotin acceptor peptide (BAP) of pESPRIT002
- EXPERIMENT: ELISA, coated VP1 pentamer
READOUT TYPE: EC50 (µg/mL)
Unit µg/mL implied. Number only.

antibody G5P6 (antibody, V domains shown) VH: QVQLVQSGAEVKKPGASVKVSCKASGYTFTTHIIHWVRQAPGQRLEWMGWINAGNGNTKYSEKFQGRVTLTRDTSASTAYMELSSLRSEDTAIYYCAREDQWLGRSPLEYWGQGTLVTVSS VL: EIVLTQSPGTLSLSPGERATLSCRASQSVSSSYLAWYQHKPGQAPRLLIYGASSRATGIPDRFSGSGSGTDFTLTVSRLEPEDFAVYYCQQYGNSYPWTFGQGTKVEIK | 0.7

Proceed to the following item.
Short answer for antibody F3P7 (antibody, V domains shown) VH: QVQLVQSGAEVKKPGASVKVSCKVSGYTFTSYSMHWLRQAPGQRLEWMGWINAGNGDTKYSQKFQGRITISRDTSARTTYMELSSLRSEDTAVFYCARSNSPTVTYNYYYYAMDVWGQGTTVTVSS VL: EIVLTQSPGTLSLSPGERATLSCRASQSVRSSYLAWYQQQAGQAPRLLIYDASSRATGIPDRFSGSGSGTDFSLTISRLDPEDFAVYYCQQYGNSPLTFGGGTKVEIK : EC50 was 1.8
